target: Proprotein convertase subtilisin/kexin type 9 (Homo sapiens, UniProt Q8NBP7); assay: Inhibition of binding of full-length recombinant human PCSK9 (M1 to Q692 residues) expressed in HEK293 cells to full-length LDLR (A1 to A699 residues) by SPR analysis
experimental_endpoint: pIC50
Quick note: pIC50 values are minus log10 of concentrations in mol/L.

Given `Cn1cncc1-c1ncc(-c2ncc(-c3ncc(-c4ccccc4)n3C)n2C)n1C` , state its recorded pIC50.
4.95
